Biological target: T1, GST-Tenc1 SH2 domain (human, UniProt Q63HR2 1140-1247)
T1 construct: source: E. coli BL21, purified (glutathione sepharose, NAP-10)
T1 sequence (looked up): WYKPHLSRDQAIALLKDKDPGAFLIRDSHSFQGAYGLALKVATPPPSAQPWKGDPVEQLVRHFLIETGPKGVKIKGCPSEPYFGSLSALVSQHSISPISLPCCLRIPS
Experiment: fluorescence polarisation; Rhodamine B-labelled peptide in solution with SH2 domain; Beacon 2000; as previously described [40]
Conditions: both partners purified
Non-standard residues stand in square brackets, D forms with d. No end group written: not given here. pY = N[C@@H](Cc1ccc(OP(=O)(O)O)cc1)C(=O)O
readout_label: Kd

binder: SPGE[pY]VNIEFG (also: Rhodamine B label, site not given here, IRS-1 around Y896; source: synthetic peptide (FMOC chemistry), purified by LC/MS) [IRS-1 (Y896) phosphopeptide SPGEpYVNIEFG, Rhodamine B-labelled]
readout_label: Kd
endpoint_value: 24 µM
